The entries below are paired with their reported abundance fitness.
B1: Histone H1t, residues 44 to 112; numbered along this chain, P22492 (parent)
chain: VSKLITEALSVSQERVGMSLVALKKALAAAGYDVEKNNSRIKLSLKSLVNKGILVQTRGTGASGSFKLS

# Variants of: B1
# test-summary: abundance fitness (aPCA) (normalised: wild type 0, dead -1); higher = more abundant; growth selection in yeast, the domain comes from the species named
# reported-conditions: Homo sapiens
Output spec: single numeric token, no unit.

The following variants have reported results that may help.
>>> print(df.to_string())
   mutation  reported_measurement
0      F66S                -0.108
1      Y32L                 0.032
2      A26N                -0.401
3      S47D                 -0.07
4      K25W                -0.602

Consider now this further variant.
Query: Fill in abundance fitness for record "S44T"
Reply: 0.081
